- assay text: Metabolic stability in mouse liver microsomes assessed as parent compound remaining at 1 uM after 10 mins in presence of NADPH
- Type: ADME, microsome
- measurement parameters: read-out: Stability
observation type: remaining at 10 min, 1 µM (%)

O=c1cc(NC2CCN(S(=O)(=O)C(F)(F)F)CC2)c2cc(C(c3ccc(Cl)cc3)c3nccs3)ccc2[nH]1 (centres undefined) | 47.8
O=c1cc(NC2CCN(S(=O)(=O)C(F)(F)F)CC2)c2cc(C(c3ccc(Cl)cc3)c3ccc(Cl)cc3)ccc2[nH]1 | 100
O=c1cc(NC2CCN(c3ncccn3)CC2)c2cc(C(c3ccc(Cl)cc3)c3ccc(Cl)cc3)ccc2[nH]1 | 57
O=c1cc(N[C@@H]2CCN(S(=O)(=O)C(F)(F)F)C2)c2cc(C(c3ccc(Cl)cc3)c3nccs3)ccc2[nH]1 (some centres undefined) | 19.1
